Test system: Saccharomyces cerevisiae
Experiment: protein stability index of tFT-peptide fusion (C-terminal peptide) (PSI (0-1 scale)); higher = more stable (slower turnover)
Conditions: genetic background: wild type; temperature: 30 C
observed-property: protein stability index

{"columns": ["query-sequence", "tested-target", "observed-property", "measured-value"],
 "data": [
  ["GVSCIAEGRGGW", "Saccharomyces cerevisiae", "protein stability index", 0.714],
  ["PLSVPPMSSLLP", "Saccharomyces cerevisiae", "protein stability index", 0.72],
  ["GGGGGGGGRARE", "Saccharomyces cerevisiae", "protein stability index", 0.707],
  ["SPPRHPPPASPA", "Saccharomyces cerevisiae", "protein stability index", 0.713],
  ["QSRFFCDKKVWG", "Saccharomyces cerevisiae", "protein stability index", 0.693],
  ["PLPRPPSPPPAP", "Saccharomyces cerevisiae", "protein stability index", 0.68],
  ["CGFLFPCSPSSK", "Saccharomyces cerevisiae", "protein stability index", 0.689],
  ["IGTGLVLFSPCY", "Saccharomyces cerevisiae", "protein stability index", 0.69],
  ["RKNYRISYKLLD", "Saccharomyces cerevisiae", "protein stability index", 0.715],
  ["RFTCYLCLKGLL", "Saccharomyces cerevisiae", "protein stability index", 0.681]
]}

###

Test system: Saccharomyces cerevisiae
Assay: protein stability index of tFT-peptide fusion in deletion strain of DAS1 (PSI (0-1 scale)); higher = more stable (slower turnover)

{"columns": ["query-sequence", "protein stability index"],
 "data": [
  ["LVVYLSCVACIC", 0.0309],
  ["ARWRVGPWRGAS", 0.68],
  ["RLIQPLPQQFLN", 0.642]
]}

###

Test system: Saccharomyces cerevisiae
Test: protein stability index of tFT-peptide fusion (C-terminal peptide) (PSI (0-1 scale)); higher = more stable (slower turnover)
Details: genetic background: wild type; temperature: 30 C

{"columns": ["query-sequence", "protein stability index"],
 "data": [
  ["HTDSKVVILFVP", 0.592],
  ["PPPLPYKAPRIL", 0.707],
  ["SSPSALSLLLSV", 0.688],
  ["GRCPPPSPPHPL", 0.68],
  ["GHVCTRCVWPRV", 0.606],
  ["KQRTMNKVSKEK", 0.683],
  ["PVPPPPPPFSLP", 0.727],
  ["RIQYKKKNRKGI", 0.628],
  ["VWGIIQTDRMGR", 0.744],
  ["LPQSSRKEAHHH", 0.78],
  ["RSTTDVADNSRP", 0.631],
  ["PVPPTPPHPGPL", 0.617],
  ["LCAGASYTMTVP", 0.694],
  ["GKITKNKDNIET", 0.686],
  ["SWFLLEVLSDFK", 0.649]
]}

###

Test system: Saccharomyces cerevisiae
Assay: protein stability index of tFT-peptide fusion (C-terminal peptide) (PSI (0-1 scale)); higher = more stable (slower turnover)
Details: genetic background: wild type; temperature: 30 C

{"columns": ["query-sequence", "protein stability index"],
 "data": [
  ["AQLLLTLNEETS [CAF40 C-terminal 12 aa]", 0.695],
  ["IVLPENIPLLYK [YJL195C C-terminal 12 aa]", 0.672],
  ["NIIGLLSNDEEH [CBP2 C-terminal 12 aa]", 0.687],
  ["VDFIKEFAEKNA [SER1 C-terminal 12 aa]", 0.706],
  ["HGTAKALAAAKK [RPL29 C-terminal 12 aa]", 0.67],
  ["AHQKEILHSVSN [YML6 C-terminal 12 aa]", 0.726],
  ["NTESSCGFFQWV [APN2 C-terminal 12 aa]", 0.737],
  ["HSDSADTHTHKH [MMT2 C-terminal 12 aa]", 0.696],
  ["YEAKLSKRILRD [SCM3 C-terminal 12 aa]", 0.723],
  ["FGICAIHWGIKV [COQ5 C-terminal 12 aa]", 0.411],
  ["YKELKDFIFAEK [GUK1 C-terminal 12 aa]", 0.727],
  ["LVHFLGLILNNF [YNL171C C-terminal 12 aa]", 0.624],
  ["IIWEKRNPEQKI [ERG11 C-terminal 12 aa]", 0.714],
  ["KHKNILPFNFTK [YEL074W C-terminal 12 aa]", 0.741],
  ["HFCYIGRITTHT [YDL114W-A C-terminal 12 aa]", 0.689],
  ["STPIAIGIMNIL [YDR271C C-terminal 12 aa]", 0.697],
  ["SGPSAMTKFGPR [ARP2 C-terminal 12 aa]", 0.684]
]}
